// provenance: patent US9273014B2

Listing of recorded half-life by entry.
- procedure.summary: in vitro
- assay.conditions: human, microsomes, pH 7.4

# smiles.entry, unit.string, bound.sign, half-life
measured = [
    ("Cc1cccc2c1NC(=O)[C@@H](NC(=O)[C@H](CCC(F)(F)F)[C@H](CCC(F)(F)F)C(N)=O)N=C2c1cccc(C(F)(F)F)c1", "h", ">", 2),
    ("COc1cccc2c1NC(=O)[C@@H](NC(=O)[C@H](CCC(F)(F)F)[C@H](CCC(F)(F)F)C(N)=O)N=C2c1cccc(C)c1", "h", "=", 1.63),
    ("CC(C)c1cccc2c1NC(=O)[C@@H](NC(=O)[C@H](CCC(F)(F)F)[C@H](CCC(F)(F)F)C(N)=O)N=C2c1cccc(Cl)c1", "h", "=", 1.22),
    ("COc1cccc2c1NC(=O)[C@@H](NC(=O)[C@H](CCC(F)(F)F)[C@H](CCC(F)(F)F)C(N)=O)N=C2c1ccc(C(F)(F)F)cn1", "h", "=", 1.37),
    ("CCc1cccc2c1NC(=O)[C@@H](NC(=O)[C@H](CCC(F)(F)F)[C@H](CCC(F)(F)F)C(N)=O)N=C2c1cccc(Cl)c1", "h", "=", 0.533),
    ("Cc1ccc(C2=N[C@H](NC(=O)[C@H](CCC(F)(F)F)[C@H](CCC(F)(F)F)C(N)=O)C(=O)Nc3ccccc32)cc1", "h", ">", 2),
]

###

- procedure.summary: in vitro
- assay.conditions: human, microsomes, pH 7.4

# smiles.entry, bound.sign, half-life [min]
records = [
    ("Cc1cccc2c1NC(=O)[C@@H](NC(=O)[C@H](CCC(F)(F)F)[C@H](CCC(F)(F)F)C(N)=O)N=C2c1cccc(Cl)c1", ">", 120),
    ("Cc1cccc(C2=N[C@H](NC(=O)[C@H](CCC(F)(F)F)[C@H](CCCC(F)(F)F)C(N)=O)C(=O)Nc3c2cccc3C(F)(F)F)c1", "=", 42),
    ("Cc1ccccc1C1=N[C@H](NC(=O)[C@H](CCC(F)(F)F)[C@H](CCC(F)(F)F)C(N)=O)C(=O)Nc2ccccc21", "=", 100),
    ("Cc1cccc(C2=N[C@H](NC(=O)[C@H](CCC(F)(F)F)[C@H](CCCC(F)(F)F)C(N)=O)C(=O)Nc3c(OC4CC4)cccc32)c1", "=", 56),
    ("CC(C)c1cccc2c1NC(=O)[C@@H](NC(=O)[C@H](CCC(F)(F)F)[C@H](CCC(F)(F)F)C(N)=O)N=C2c1ccccc1", "=", 48),
    ("Cc1cccc(C2=N[C@H](NC(=O)[C@H](CCC(F)(F)F)[C@H](CCCC(F)(F)F)C(N)=O)C(=O)Nc3c(Cl)cccc32)c1", "=", 56),
]

###

- procedure.summary: in vitro
- assay.conditions: human, microsomes, pH 7.4

# compound, half-life
measured = [
    ("Cc1cc(C)cc(C2=N[C@H](NC(=O)[C@H](CCC(F)(F)F)[C@H](CCC(F)(F)F)C(N)=O)C(=O)Nc3c(Cl)cccc32)c1 [Example 10]", "54 min"),
    ("Cc1cc(C)cc(C2=N[C@H](NC(=O)[C@H](CCC(F)(F)F)[C@H](CCCC(F)(F)F)C(N)=O)C(=O)Nc3c(Cl)cccc32)c1 [Example 5]", "33 min"),
    ("Cc1ccc(C2=N[C@H](NC(=O)[C@H](CCC(F)(F)F)[C@H](CCCC(F)(F)F)C(N)=O)C(=O)Nc3c(Cl)cccc32)cc1C [Example 4]", "31 min"),
]
